Recorded values, source PubChem BioAssay (NCI).

# Test system: SNB-75 CNS
# experimental_protocol: NCI tumour cell line growth inhibition, 48 h
*1 amine or outer side, *2 acyl side, *3 side chain or, on linkers, in order; H or OH if unused. Where a SMILES comes first, the peptide text is derived from it. CO = O=C([*:1])[*:2]
recorded_endpoint: TGI (µM)

| compound | measured_target | limit_sign | observed_value |
| --- | --- | --- | --- |
| CC(C)C(NC(=O)C(CCCN=C(N)N)NC(=O)NC(Cc1ccccc1)C(=O)O)C(=O)NC(C=O)CCCN=C(N)N (stereo not drawn) ({Phe-CO}-Arg-Val-Arg-aldehyde; configuration not given here) | SNB-75 CNS | > | 5 |
| Nc1c(C(=O)Nc2cccc3ccccc23)sc2nc3c(cc12)CCCCC3 | SNB-75 CNS | > | 50 |
| COc1ccc(/C=c2/[nH]c(=O)/c(=C\c3ccc(OCc4ccccc4)cn3)[nH]c2=O)cc1 | SNB-75 CNS | = | 61 |
| CN(C)c1ccc2[nH]c(O)c(C=Nc3ccc(S(N)(=O)=O)cc3)c2c1 | SNB-75 CNS | > | 25 |
| COc1ccc(-c2cc(=O)c3c(O)c(OC)c(O)cc3o2)cc1O | SNB-75 CNS | = | 60 |

* * *

# System: DU-145 prostate
# experimental_protocol: NCI tumour cell line growth inhibition, 48 h; in the data active = GI50 below about 0.43 µM; inactive = the rest
Labels: active, inactive

| molecule | label_class |
| --- | --- |
| CCOC(=O)c1ccc(C(O)CC(=O)OC(C)(C)C)[nH]1 (stereo not drawn) | inactive |
| C[C@]12CC[C@H]3[C@@H](CC=C4C[C@@H](O)CC[C@@]43C)[C@@H]1C/C(=C\c1cccc(OCCCn3ccnc3)c1)[C@@H]2O | inactive |
| CC1=Cc2cc3[n-]c(cc4nc(cc5[n-]c(cc1n2)c(C)c5CCC(=O)O)C(CCC(=O)O)=C4C)cc3C.[Cu+2] | inactive |
| O=c1[nH]cnc2c1nnn2[C@@H]1O[C@H](CO)[C@@H](O)[C@H]1O | inactive |
| CN(C)c1ccc2[nH]c(O)c(C=Nc3ccc(S(N)(=O)=O)cc3)c2c1 | inactive |
| COc1cc(N)ccc1Nc1c2ccccc2nc2ccccc12 | inactive |
| Cc1cccc(Oc2ccc(Nc3ncnc4ccc(NC(=O)CN5CCN(C)CC5)cc34)cc2Cl)c1 | inactive |
| O=[N+]([O-])c1ccccc1/C=C/C=C1c2ccccc2-c2ccccc21 | inactive |
| O=C(Nc1nc(-c2ccc(Cl)cc2)cs1)c1ccc(O)c(O)c1 | inactive |
| Fc1ccc(Nc2ccc3cc(OCCCN4CCOCC4)ccc3n2)cc1F | inactive |
| CN1CCN(CCCOc2ccc3ncnc(Nc4ccc(Oc5cccc(C(F)(F)F)c5)c(Cl)c4)c3c2)CC1 | inactive |
| Cc1cc(S(=O)(=O)/N=C(\N)n2nc(C)c(C)c2C)c(SCc2ccccc2)cc1Cl | inactive |
| CC(=O)C1=C(O)C2(O)C(=O)c3c(c(C)c4ccc(C)c(O)c4c3O)CC2C(N)C1=O (stereo not drawn) | inactive |
| COc1ccc(C(=O)c2ccc(OC)cc2OC)cc1 | inactive |
| C/C(=C\c1csc(C)n1)[C@@H]1C[C@@H]2O[C@]2(C)CCC[C@H](C)[C@H](O)[C@@H](C)C(=O)C(C)(C)[C@@H](O)CC(=O)O1 (tested in a mixture with another compound) | active |
| O=C(/C=C/c1ccc2c(c1)OCO2)c1ccccc1 | inactive |
| O=C1CN2CCC1C/C2=C\c1ccnc2c(Cl)cccc12 (stereo not drawn) | inactive |
| CCCN1C(=O)/C(=C/c2ccc(O)cc2)SC1=Nc1ccccc1 | inactive |
